Provide the recorded GI50 for the entries that follow.
System: SF-539
Test: NCI screen antiproliferative activity, CNS SF-539

compound	GI50
COc1cnc2c(c1)C(=O)c1c-2n(CCCN2CCOCC2)c(=O)c2cc(OC)c(OC)cc12.Cl [Compound 56, Hydrochloride]	0.27 µM
Cl.O=C1c2cccnc2-c2c1c1ccccc1c(=O)n2CCCN1CCOCC1 [Compound 21, Hydrochloride]	5.62 µM
O=C1c2cccnc2-c2c1c1ccccc1c(=O)n2CCCn1ccnc1	5.13 µM
COc1cnc2c(c1)C(=O)c1c-2n(CCCN(C)C)c(=O)c2ccccc12	0.57 µM
Cl.O=C1c2cccnc2-c2c1c1ccccc1c(=O)n2CCCNCCO [Compound 30, Hydrochloride]	0.87 µM

Could you tell me GI50 for each of these compounds? They are listed below.
1. COc1cc2c3c(n(CCCN4CCOCC4)c(=O)c2cc1OC)-c1ncccc1C3=O
2. COc1cnc2c(c1)C(=O)c1c-2n(CCCN(C)C)c(=O)c2cc([N+](=O)[O-])ccc12
3. COc1cc2c3c(n(CCCN)c(=O)c2cc1OC)-c1ncccc1C3=O.Cl [Compound 32, Hydrochloride]
4. COc1cnc2c(c1)C(=O)c1c-2n(CCCN2CCOCC2)c(=O)c2cc([N+](=O)[O-])ccc12
5. COc1cc2c3c(n(CCCN4CCOCC4)c(=O)c2cc1OC)-c1ccncc1C3=O.O=C(O)C(F)(F)F

[A]
0.29 µM
0.078 µM
2.19 µM
0.035 µM
> 100 µM

---

System: DU-145
Experiment: NCI screen antiproliferative activity, prostate DU-145
outcomeMeasure: GI50
Please append the unit to your numeric answer.

Recorded GI50, per entry:
compound	target	GI50
COc1cnc2c(c1)C(=O)c1c-2n(CCCN(C)C)c(=O)c2cc(OC)c(OC)cc12.Cl [Compound 55, Hydrochloride]	DU-145	880 nM
COc1cc2c3c(n(CCCN(C)C)c(=O)c2cc1OC)-c1ccncc1C3=O.O=C(O)C(F)(F)F	DU-145	2900 nM
COc1cc2c3c(n(CCCN4CCOCC4)c(=O)c2cc1OC)-c1ccncc1C3=O.O=C(O)C(F)(F)F	DU-145	7600 nM
COc1cc2c3c(n(CCCNCCO)c(=O)c2cc1OC)-c1ncccc1C3=O.Cl [Compound 31, Hydrochloride]	DU-145	320 nM
Cl.O=C1c2cccnc2-c2c1c1ccccc1c(=O)n2CCCN1CCOCC1 [Compound 21, Hydrochloride]	DU-145	3550 nM

Could you tell me GI50 for each of these compounds? They are listed below.
1. COc1cnc2c(c1)C(=O)c1c-2n(CCCN2CCOCC2)c(=O)c2cc([N+](=O)[O-])ccc12
2. COc1cc2c3c(n(CCCN)c(=O)c2cc1OC)-c1ncccc1C3=O.Cl [Compound 32, Hydrochloride]

[A]
40 nM
1620 nM

---

System: approximately 60 different human cancer cell lines
Assay: NCI screen, mean graph midpoint over all cell lines
Type: cell-based
Conditions: all human cancer cell lines successfully tested; 48 h; Table 2
Provide the recorded MGM (mean graph midpoint for growth inhibition) for the entries that follow.
Answers are plain numbers, in µM.

molecule	u	observed
COc1cc2c3c(n(CCCN4CCOCC4)c(=O)c2cc1OC)-c1ccncc1C3=O.O=C(O)C(F)(F)F	µM	9.5
COc1cnc2c(c1)C(=O)c1c-2n(CCCN(C)C)c(=O)c2cc(OC)c(OC)cc12.Cl	µM	1.8
COc1cnc2c(c1)C(=O)c1c-2n(CCCN2CCOCC2)c(=O)c2cc(OC)c(OC)cc12.Cl	µM	0.48
COc1cnc2c(c1)C(=O)c1c-2n(CCCN2CCOCC2)c(=O)c2cc([N+](=O)[O-])ccc12	µM	0.085
COc1cc2c3c(n(CCCN4CCOCC4)c(=O)c2cc1OC)-c1ncccc1C3=O	µM	0.30

Could you tell me MGM (mean graph midpoint for growth inhibition) for each of these molecules? They are listed below.
1. COc1cnc2c(c1)C(=O)c1c-2n(CCCN(C)C)c(=O)c2ccccc12
2. COc1cc2c3c(n(CCCN(C)C)c(=O)c2cc1OC)-c1ccncc1C3=O.O=C(O)C(F)(F)F
3. CC[C@@]1(O)C(=O)OCc2c1cc1n(c2=O)Cc2cc3ccccc3nc2-1 [Compound 1, camptothecin, reference compound]
4. COc1cc2c3c(n(C)c(=O)c2cc1OC)-c1cc2c(cc1C3=O)OCO2 [Compound 2, reference compound]
5. COc1cnc2c(c1)C(=O)c1c-2n(CCCN(C)C)c(=O)c2cc([N+](=O)[O-])ccc12

[A]
[0.40, 6.5, 0.040, 8.5, 0.11]

---

Molecular target: human recombinant Top1 (Homo sapiens, UniProt P11387)
Construct: made in house
Sequence (P11387 1-765): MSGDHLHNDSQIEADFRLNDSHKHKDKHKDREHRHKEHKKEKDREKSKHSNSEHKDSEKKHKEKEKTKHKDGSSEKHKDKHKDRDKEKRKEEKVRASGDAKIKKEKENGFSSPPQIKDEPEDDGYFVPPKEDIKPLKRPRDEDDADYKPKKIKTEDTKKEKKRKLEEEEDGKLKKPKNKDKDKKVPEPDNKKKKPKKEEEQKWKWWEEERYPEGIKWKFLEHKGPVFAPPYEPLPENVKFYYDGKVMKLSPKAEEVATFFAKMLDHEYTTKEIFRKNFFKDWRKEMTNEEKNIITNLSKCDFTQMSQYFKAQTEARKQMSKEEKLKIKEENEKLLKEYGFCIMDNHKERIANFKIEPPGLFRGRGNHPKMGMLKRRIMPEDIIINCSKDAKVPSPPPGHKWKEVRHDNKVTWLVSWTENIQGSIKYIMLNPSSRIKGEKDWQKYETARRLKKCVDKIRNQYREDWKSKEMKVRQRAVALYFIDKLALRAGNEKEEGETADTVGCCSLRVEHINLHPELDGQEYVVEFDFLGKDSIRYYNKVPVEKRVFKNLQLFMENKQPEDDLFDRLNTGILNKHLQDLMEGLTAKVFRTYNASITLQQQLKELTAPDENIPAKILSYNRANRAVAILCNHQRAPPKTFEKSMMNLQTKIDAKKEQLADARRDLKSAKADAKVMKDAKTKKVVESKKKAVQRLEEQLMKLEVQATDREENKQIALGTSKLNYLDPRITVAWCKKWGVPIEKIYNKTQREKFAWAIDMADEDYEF
Assay: Top1-mediated DNA cleavage assay
Assay type: biochemical
Details: semiquantitative, relative to compounds 1 and 2; Table 2

smilesStr	target	Top1 Cleavage
COc1cc2c3c(n(CCCN4CCOCC4)c(=O)c2cc1OC)-c1cnccc1C3=O.O=C(O)C(F)(F)F	human recombinant Top1 (Homo sapiens, UniProt P11387)	++
COc1cc2c3c(n(CCCN(C)C)c(=O)c2cc1OC)-c1cnccc1C3=O.O=C(O)C(F)(F)F	human recombinant Top1 (Homo sapiens, UniProt P11387)	++
COc1cnc2c(c1)C(=O)c1c-2n(CCCN(C)C)c(=O)c2cc([N+](=O)[O-])ccc12	human recombinant Top1 (Homo sapiens, UniProt P11387)	+++

---

System: UACC-62
Test: NCI screen antiproliferative activity, melanoma UACC-62
Provide the recorded GI50 for the entries that follow.
Numbers only, in µM.

Recorded GI50, per entry:
compound	outcomeMeasure	observed
O=C1c2cccnc2-c2c1c1ccccc1c(=O)n2CCCn1ccnc1	GI50	35.5
COc1cnc2c(c1)C(=O)c1c-2n(CCCN(C)C)c(=O)c2cc([N+](=O)[O-])ccc12	GI50	0.052

Let us examine a further case.
Looking up CN(C)CCCn1c2c(c3ccc([N+](=O)[O-])cc3c1=O)C(=O)c1cccnc1-2.Cl [Compound 20, Hydrochloride] , I see its GI50 listed as 3.31

---

System: MCF7
Experiment: NCI screen antiproliferative activity, breast MCF7
Experimental: Cells of approximately 60 different human cancer cell lines were incubated for 48 h with five 10-fold dilutions of the tested compounds starting from 100 μM and then treated with sulforhodamine B dye. The ratios of recorded optical densities relative to that of the control were plotted as a function of the common logarithm of the tested compound concentrations. […] The antiproliferative activity of each compound was determined in the National Cancer Institute (NCI) screen as described above. […]
outcomeMeasure: GI50

molecule	target	observed
COc1cc2c3c(n(CCCN4CCOCC4)c(=O)c2cc1OC)-c1ccncc1C3=O.O=C(O)C(F)(F)F	MCF7	1.9 µM
COc1cc2c3c(n(CCCN4CCOCC4)c(=O)c2cc1OC)-c1cnccc1C3=O.O=C(O)C(F)(F)F	MCF7	4.1 µM
COc1cnc2c(c1)C(=O)c1c-2n(CCCN(C)C)c(=O)c2cc([N+](=O)[O-])ccc12	MCF7	0.024 µM
COc1cc2c3c(n(CCCN4CCOCC4)c(=O)c2cc1OC)-c1ncccc1C3=O	MCF7	0.052 µM
COc1cc2c3c(n(CCCNCCO)c(=O)c2cc1OC)-c1ncccc1C3=O.Cl [Compound 31, Hydrochloride]	MCF7	0.074 µM
O=C1c2cccnc2-c2c1c1ccccc1c(=O)n2CCCn1ccnc1	MCF7	3.39 µM
COc1cnc2c(c1)C(=O)c1c-2n(CCCN2CCOCC2)c(=O)c2ccccc12	MCF7	0.6 µM
COc1cnc2c(c1)C(=O)c1c-2n(CCCN2CCOCC2)c(=O)c2cc(OC)c(OC)cc12.Cl [Compound 56, Hydrochloride]	MCF7	0.1 µM
COc1cc2c3c(n(CCCN)c(=O)c2cc1OC)-c1ncccc1C3=O.Cl [Compound 32, Hydrochloride]	MCF7	49 µM
COc1cc2c3c(n(CCCN(C)C)c(=O)c2cc1OC)-c1ccncc1C3=O.O=C(O)C(F)(F)F	MCF7	3.9 µM

Let us examine a further case.
The molecule COc1cnc2c(c1)C(=O)c1c-2n(CCCN2CCOCC2)c(=O)c2cc([N+](=O)[O-])ccc12 , tested on MCF7, showed GI50 of 0.02 µM
